# TARGET OF ASSAY: Neuropeptide Y receptor type 4 (Homo sapiens)
# ASSAY: Agonist activity at human Y4R expressed in CHO cells co-expressing Gqi5-mtAEQ by calcium2+ aequorin assay
# Assay type: functional, cell-based
# CONDITION DESCRIPTION: read-out: pEC50 (converted)

[
  {
    "SMILES REPRESENTATION": "CCC(=O)N[C@@H]1CC(=O)N[C@@H](CCCNC(=N)N)C(=O)N[C@@H](Cc2ccc(O)cc2)C(=O)N[C@H](C(=O)N[C@@H](CC(C)C)C(=O)N[C@@H](CCCNC(=N)N)C(=O)N[C@@H](Cc2ccc(O)cc2)C(N)=O)CCCN/C(N)=N/C(=O)NCCCCNC1=O",
    "TARGET OF ASSAY": "Neuropeptide Y receptor type 4 (Homo sapiens)",
    "EC50 [nM]": 6.31
  },
  {
    "SMILES REPRESENTATION": "CC(C)C[C@H](NC(=O)[C@@H]1CCCN/C(N)=N/C(=O)NCCCCNC(=O)C[C@H](N)C(=O)N[C@@H](CCCNC(=N)N)C(=O)N[C@@H](Cc2ccc(O)cc2)C(=O)N1)C(=O)N[C@@H](CCCNC(=N)N)C(=O)N[C@@H](Cc1ccc(O)cc1)C(N)=O",
    "TARGET OF ASSAY": "Neuropeptide Y receptor type 4 (Homo sapiens)",
    "EC50 [nM]": 13.2
  },
  {
    "SMILES REPRESENTATION": "CCC(=O)N[C@H]1CC(=O)NCCCCNC(=O)/N=C(\\N)NCCC[C@@H](C(=O)N[C@@H](CC(C)C)C(=O)N[C@@H](CCCNC(=N)N)C(=O)N[C@@H](Cc2ccc(O)cc2)C(N)=O)NC(=O)[C@H](Cc2ccc(O)cc2)NC(=O)[C@H](CCCNC(=N)N)NC1=O",
    "TARGET OF ASSAY": "Neuropeptide Y receptor type 4 (Homo sapiens)",
    "EC50 [nM]": 20
  },
  {
    "SMILES REPRESENTATION": "CCC(=O)NCCCC(=O)N[C@@H]1CC(=O)N[C@@H](CCCNC(=N)N)C(=O)N[C@@H](Cc2ccc(O)cc2)C(=O)N[C@H](C(=O)N[C@@H](CC(C)C)C(=O)N[C@@H](CCCNC(=N)N)C(=O)N[C@@H](Cc2ccc(O)cc2)C(N)=O)CCCN/C(N)=N/C(=O)NCCCCNC1=O.O=C(O)C(F)(F)F.O=C(O)C(F)(F)F.O=C(O)C(F)(F)F",
    "TARGET OF ASSAY": "Neuropeptide Y receptor type 4 (Homo sapiens)",
    "EC50 [nM]": 5.13
  },
  {
    "SMILES REPRESENTATION": "CCC(=O)N[C@H]1CC(=O)N[C@@H](CCCNC(=N)N)C(=O)N[C@@H](Cc2ccc(O)cc2)C(=O)N[C@H](C(=O)N[C@@H](CC(C)C)C(=O)N[C@@H](CCCNC(=N)N)C(=O)N[C@@H](Cc2ccc(O)cc2)C(N)=O)CCCN/C(N)=N/C(=O)NCCCCNC1=O",
    "TARGET OF ASSAY": "Neuropeptide Y receptor type 4 (Homo sapiens)",
    "EC50 [nM]": 22.4
  }
]

---

Below: a set of entries, each annotated with reported Emax.
# TARGET OF ASSAY: Neuropeptide Y receptor type 4 (Homo sapiens, UniProt P50391)
# Sequence (P50391 whole entry): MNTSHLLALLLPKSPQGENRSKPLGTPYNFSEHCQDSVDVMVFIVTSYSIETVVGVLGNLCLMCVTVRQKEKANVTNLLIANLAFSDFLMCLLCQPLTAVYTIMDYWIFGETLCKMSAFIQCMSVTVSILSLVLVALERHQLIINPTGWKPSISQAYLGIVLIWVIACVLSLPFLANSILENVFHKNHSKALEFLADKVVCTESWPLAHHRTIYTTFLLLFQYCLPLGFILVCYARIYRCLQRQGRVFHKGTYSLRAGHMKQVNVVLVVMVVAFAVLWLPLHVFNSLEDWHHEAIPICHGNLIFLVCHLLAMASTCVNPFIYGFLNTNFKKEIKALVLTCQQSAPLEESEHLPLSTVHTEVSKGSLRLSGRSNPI
# ASSAY: Agonist activity at human Y4R expressed in HEK293T cells by miniGsi assay relative to control
# Type: functional, cell-based
# CONDITION DESCRIPTION: filed as agonist
PARAMETER: Emax (%)

[
  {
    "SMILES REPRESENTATION": "CC(C)C[C@H](NC(=O)[C@@H]1CCCN/C(N)=N/C(=O)NCCCCNC(=O)[C@H](NC(=O)CCCN)CC(=O)N[C@@H](CCCNC(=N)N)C(=O)N[C@@H](Cc2ccc(O)cc2)C(=O)N1)C(=O)N[C@@H](CCCNC(=N)N)C(=O)N[C@@H](Cc1ccc(O)cc1)C(N)=O",
    "READOUT UNIT": "%",
    "VALUE MEASURED": 62
  },
  {
    "SMILES REPRESENTATION": "CCC(=O)NCCCC(=O)N[C@@H]1CC(=O)N[C@@H](CCCNC(=N)N)C(=O)N[C@@H](Cc2ccc(O)cc2)C(=O)N[C@H](C(=O)N[C@@H](CC(C)C)C(=O)N[C@@H](CCCNC(=N)N)C(=O)N[C@@H](Cc2ccc(O)cc2)C(N)=O)CCCN/C(N)=N/C(=O)NCCCCNC1=O.O=C(O)C(F)(F)F.O=C(O)C(F)(F)F.O=C(O)C(F)(F)F",
    "READOUT UNIT": "%",
    "VALUE MEASURED": 60
  }
]

---

Below: a set of entries, each annotated with reported Ki.
# TARGET OF ASSAY: Neuropeptide Y receptor type 1 (Homo sapiens, UniProt P25929)
# Sequence (P25929 whole entry): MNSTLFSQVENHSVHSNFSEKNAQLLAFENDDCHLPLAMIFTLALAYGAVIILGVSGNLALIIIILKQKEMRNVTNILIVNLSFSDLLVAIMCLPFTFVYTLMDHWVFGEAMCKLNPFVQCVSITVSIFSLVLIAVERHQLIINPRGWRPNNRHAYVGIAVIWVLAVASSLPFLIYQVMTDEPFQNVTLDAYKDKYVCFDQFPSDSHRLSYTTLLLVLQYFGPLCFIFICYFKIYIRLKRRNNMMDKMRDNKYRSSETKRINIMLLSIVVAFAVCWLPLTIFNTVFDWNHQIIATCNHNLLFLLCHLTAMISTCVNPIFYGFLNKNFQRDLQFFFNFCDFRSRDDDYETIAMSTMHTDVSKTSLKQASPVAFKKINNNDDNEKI
# ASSAY: Displacement of [3H]UR-MK299 from human Y1R expressed in SK-N-MC cells
# Format: cell-based
# CONDITION DESCRIPTION: sk-n-mc; read-out: Ki
Starred links: 1 amine or outer side, 2 acyl side, 3 side chain; linkers in the order of their positions; H or OH if unused. Positions of bridges follow the written chain, without caps; N, C: chain ends. Non-standard residues stand in square brackets, D forms with d. Residues, ends and D or L forms follow the SMILES beside them. *: point of attachment. Arg(Nω-CO) = N/C(=N\C(=O)[*:3])NCCC[C@H](N[*:1])C(=O)[*:2]; Ethylenediamine = C(CN[*:2])N[*:1]; Propionyl = CCC(=O)*

[
  {
    "COMPOUND": "CC(C)C[C@H](NC(=O)[C@@H]1CCCN/C(N)=N/C(=O)NCCCCNC(=O)C[C@@H](N)C(=O)N[C@@H](CCCNC(=N)N)C(=O)N[C@@H](Cc2ccc(O)cc2)C(=O)N1)C(=O)N[C@@H](CCCNC(=N)N)C(=O)N[C@@H](Cc1ccc(O)cc1)C(N)=O",
    "Ki": "> 1000 nM"
  },
  {
    "COMPOUND": "CCC(=O)NCCCC(=O)N[C@@H]1CC(=O)N[C@@H](CCCNC(=N)N)C(=O)N[C@@H](Cc2ccc(O)cc2)C(=O)N[C@H](C(=O)N[C@@H](CC(C)C)C(=O)N[C@@H](CCCNC(=N)N)C(=O)N[C@@H](Cc2ccc(O)cc2)C(N)=O)CCCN/C(N)=N/C(=O)NCCCCNC1=O.O=C(O)C(F)(F)F.O=C(O)C(F)(F)F.O=C(O)C(F)(F)F",
    "Ki": "> 1000 nM"
  },
  {
    "COMPOUND": "CCC(=O)N[C@H]1CCC(=O)NCCNC(=O)/N=C(\\N)NCCC[C@@H](C(=O)N[C@@H](CC(C)C)C(=O)N[C@@H](CCCNC(=N)N)C(=O)N[C@@H](Cc2ccc(O)cc2)C(N)=O)NC(=O)[C@H](Cc2ccc(O)cc2)NC(=O)[C@H](CCCNC(=N)N)NC1=O (Propionyl-ERY[Arg(Nω-CO)]LRY-NH2; linker 1-4 via Ethylenediamine)",
    "Ki": "> 1000 nM"
  }
]

---

Below: a set of entries, each annotated with reported Ki.
# TARGET OF ASSAY: Neuropeptide Y receptor type 2 (Homo sapiens, UniProt P49146)
# Sequence (P49146 whole entry): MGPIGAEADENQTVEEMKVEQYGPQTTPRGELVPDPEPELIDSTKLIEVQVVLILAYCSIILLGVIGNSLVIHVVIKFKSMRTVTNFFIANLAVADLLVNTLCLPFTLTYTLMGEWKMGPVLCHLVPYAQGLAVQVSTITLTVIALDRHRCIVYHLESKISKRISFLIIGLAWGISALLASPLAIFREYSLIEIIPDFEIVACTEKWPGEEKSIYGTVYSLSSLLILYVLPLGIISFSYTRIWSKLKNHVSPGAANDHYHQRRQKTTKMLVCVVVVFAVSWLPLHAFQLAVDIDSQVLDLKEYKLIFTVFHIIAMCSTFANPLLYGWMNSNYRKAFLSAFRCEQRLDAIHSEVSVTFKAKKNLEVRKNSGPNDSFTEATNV
# ASSAY: Displacement of [3H]propionyl-pNPY from human Y2R expressed in CHO cells
# Assay type: cell-based
# CONDITION DESCRIPTION: cho; read-out: Ki

[
  {
    "SMILES REPRESENTATION": "CCC(=O)N[C@@H]1CC(=O)N[C@@H](CCCNC(=N)N)C(=O)N[C@@H](Cc2ccc(O)cc2)C(=O)N[C@H](C(=O)N[C@@H](CC(C)C)C(=O)N[C@@H](CCCNC(=N)N)C(=O)N[C@@H](Cc2ccc(O)cc2)C(N)=O)CCCN/C(N)=N/C(=O)NCCCCNC1=O",
    "Ki": "> 10 µM"
  },
  {
    "SMILES REPRESENTATION": "CC(C)C[C@H](NC(=O)[C@@H]1CCCN/C(N)=N/C(=O)NCCCCNC(=O)[C@H](N)CC(=O)N[C@@H](CCCNC(=N)N)C(=O)N[C@@H](Cc2ccc(O)cc2)C(=O)N1)C(=O)N[C@@H](CCCNC(=N)N)C(=O)N[C@@H](Cc1ccc(O)cc1)C(N)=O",
    "Ki": "> 10 µM"
  },
  {
    "SMILES REPRESENTATION": "CCC(=O)N[C@H]1CC(=O)NCCCCNC(=O)/N=C(\\N)NCCC[C@@H](C(=O)N[C@@H](CC(C)C)C(=O)N[C@@H](CCCNC(=N)N)C(=O)N[C@@H](Cc2ccc(O)cc2)C(N)=O)NC(=O)[C@H](Cc2ccc(O)cc2)NC(=O)[C@H](CCCNC(=N)N)NC1=O",
    "Ki": "> 10 µM"
  },
  {
    "SMILES REPRESENTATION": "CCC(=O)N[C@H]1CC(=O)N[C@@H](CCCNC(=N)N)C(=O)N[C@@H](Cc2ccc(O)cc2)C(=O)N[C@H](C(=O)N[C@@H](CC(C)C)C(=O)N[C@@H](CCCNC(=N)N)C(=O)N[C@@H](Cc2ccc(O)cc2)C(N)=O)CCCN/C(N)=N/C(=O)NCCCCNC1=O",
    "Ki": "> 10 µM"
  }
]
